Origin of measurements: the RNAGym collection of RNA variant scans (doi:10.1073/pnas.2313332121)

B1: TPR t1 (parent)
chain: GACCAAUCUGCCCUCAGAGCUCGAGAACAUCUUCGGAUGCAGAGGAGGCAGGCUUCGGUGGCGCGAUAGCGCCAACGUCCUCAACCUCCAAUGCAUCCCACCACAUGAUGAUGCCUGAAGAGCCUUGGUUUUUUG

Variants of: B1
Assay: polymerase ribozyme fitness, log enrichment relative to wild type (log ratio); higher = more active; in vitro selection for triplet polymerase activity
Everything with polymerase ribozyme fitness (log ratio) lower than -3 is N; everything else, including exactly -3, is Y.

Study these solved cases before continuing.
GACCAAUCGGCCAUCAGAGCUCGAGAACAUCUUCGGAUGCAGAGGAGCCAGGCUUAGGUGGCGCGAUAGCGACAACGACCUCAACCUCCAAUGCAUCCCACCACAUGAUGAUGCCUGAAGAGCCUUGGUUUUUUG [U9G C13A G48C C56A C72A U78A] = Y
GACCAAUCUGCCCUCAGAGCUCGAGAACAUCUUCGGAUGCAGAGGAGGCAGGCUUUGGUGGCGCGAUAGCGCCAACGUCCUCAACCUCCAAUGCCUCCCACCACAUGAUGAUGCCUGAAGAGCCUUGGUUUUUUG [C56U A95C] = Y
GACCAAUCUGCCCUCAGAGCUCGAGAACAUCUUCGGAUGCAGAGGAGGCACGCUUCGGUGGCGCGAUAGCGCCAACGUCCUCAAGCUCCAAUGCAUCCCACCACAUGAUGAUGCCUGAAGAGCCUUGGUUUUUUG [G51C C85G] = N
GACCAAUCUGCCCUCAGAGCUCGAGAACAUCUUCGGAUGCAGAGGAGGCAGUCUUCGGUGCCGCGAUAGCGCCAACGUCCUCAACCUCCAAUGCAUCCCACCACAUGAUGAUGCCUGAAGAGACUUGGUUUUUUG [G52U G61C C123A] = Y
GACCAAUCUGCCCUCAGAGAUCGAGAACAUCUUCGGAUGCAGAGGAGGCAGGCUUCGGUGGCCCGAUAGCGCCAACGUCCUCAACCUCCAAUGCAUCCCACCACAUGAUGAUGCCUGAAGAGCCUUGGUUUUUUG [C20A G63C] = N
GACCAAUCUGCCCUCAGAGCUCGAGAACAUCUUCGGAUGCAGAGGAGGCAGGCUUCGGUGGCACGAUAGCGCCAACGUCCUCAACCUCUAAUGCAUCCCACCACAUGAUGAUGCCUGAAGAGCCUUGGUUUUUUG [G63A C89U] = Y

// inclusive: polymerase ribozyme fitness (log ratio) at least -3? input: GACCAAUCUGCCCUCAGAGCUCGAGAACAUCUUCGGAUGCAGAGGAGGCAGGCUUCGGUUGCGCGAUAGCGCCAACGUCCUCAACCUCCAGUGCAUCCCACCACAUGAUGAUGCCUGAAGAGCCUUGGUUUUUUG [G60U A91G]
Y
